Field: remaining at 4 h, 10 µM. Provide a value for each of the compounds that follow.
# MEASUREMENT_DESCRIPTION: Peptide stability in simulated intestinal fluid (SIF)
# Assay type: in vitro ADME
# RUN_PARAMETERS: pig, simulated intestinal fluid (SIF) with porcine pancreatin; 4 h, 37 °C, pH 6.8, porcine pancreatin 10 g/L, 10 µM; read-out: SIF (% remaining 4 h)
Record the value in %, omitting the unit from your answer.

Q: Which measured remaining at 4 h, 10 µM value corresponds to "CNC(=O)[C@H](Cc1cccnc1)NC(=O)[C@H](CCN)NC(=O)[C@@H]1CCC(=O)NCc2ccc(cc2)CC(=O)N[C@@H](C)C(=O)N[C@H]2CCC(=O)NCC[C@H](NC(=O)[C@H](CCC(N)=O)NC(=O)[C@H](Cc3c[nH]c4ccccc34)NC2=O)C(=O)N[C@@H](Cc2c[nH]c3ncccc23)C(=O)N[C@@H](Cc2ccc3ccccc3c2)C(=O)NC(C)(C)C(=O)N1" ?
A: 92

Q: Which measured remaining at 4 h, 10 µM value corresponds to "CNC(=O)[C@H](Cc1cccnc1)NC(=O)[C@@H](CO)NC(=O)[C@@H]1CCC(=O)NCc2ccc(cc2)CC(=O)N[C@@H](CO)C(=O)N[C@H]2CCC(=O)NCC[C@H](NC(=O)[C@H](CCC(N)=O)NC(=O)[C@H](Cc3c[nH]c4ccccc34)NC2=O)C(=O)N[C@@H](Cc2ccc(OCCN)cc2)C(=O)N[C@@H](Cc2ccc3ccccc3c2)C(=O)N[C@@](C)(CC(C)C)C(=O)N1" ?
A: 65

====

Field: pIC50. Provide a value for each of the compounds that follow.
# TESTED_TARGET: IL-23 mediated STAT3 signalling (Homo sapiens, UniProt Q5VWK5)
# Sequence (Q5VWK5 24-629 limits assumed): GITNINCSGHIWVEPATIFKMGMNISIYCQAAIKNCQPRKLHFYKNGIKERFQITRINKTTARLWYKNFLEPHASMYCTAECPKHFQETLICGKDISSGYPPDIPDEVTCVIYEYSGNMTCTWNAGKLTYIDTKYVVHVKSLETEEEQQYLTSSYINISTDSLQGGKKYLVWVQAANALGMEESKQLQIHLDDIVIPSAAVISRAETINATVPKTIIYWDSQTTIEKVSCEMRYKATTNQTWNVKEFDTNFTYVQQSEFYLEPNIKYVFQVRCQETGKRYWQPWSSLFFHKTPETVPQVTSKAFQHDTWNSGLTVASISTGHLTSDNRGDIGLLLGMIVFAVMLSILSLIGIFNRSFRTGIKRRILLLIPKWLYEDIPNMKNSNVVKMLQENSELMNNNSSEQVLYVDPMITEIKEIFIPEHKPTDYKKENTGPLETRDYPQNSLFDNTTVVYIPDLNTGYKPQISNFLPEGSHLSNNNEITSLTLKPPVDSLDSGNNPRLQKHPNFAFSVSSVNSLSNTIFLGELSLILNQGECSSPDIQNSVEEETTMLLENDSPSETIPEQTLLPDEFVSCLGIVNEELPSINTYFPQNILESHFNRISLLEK
# MEASUREMENT_DESCRIPTION: Functional inhibition of IL-23 mediated STAT3 signalling (phospho-STAT3 Tyr705 MSD, DB cells)
# Type: cell-based
# RUN_PARAMETERS: Example 2 (Tables 2-1 to 2-4), read-out: IC50 (pSTAT3)
*1 amine or outer side, *2 acyl side, *3 side chain or, on linkers, in order; H or OH if unused. Where a SMILES comes first, the peptide text is derived from it. Bridges are numbered along the chain shown (N, C = ends). [ ]: non-standard residue; d: D form. 2Nal = N[C@@H](Cc1ccc2ccccc2c1)C(=O)O; AEF = NCCOc1ccc(C[C@H](N)C(=O)O)cc1; X1 = O=C(Cc1ccc(CN[*:1])cc1)[*:2]; 3Pal = N[C@@H](Cc1cccnc1)C(=O)O; αMeL = CC(C)C[C@](C)(N)C(=O)O; β3hL = CC(C)C[C@H](N)CC(=O)O; Dab = NCC[C@H](N)C(=O)O; Sar = CNCC(=O)O
Recall that pIC50 is obtained by taking minus log10 of the concentration measured in molar.

Q: Which measured pIC50 value corresponds to "CC(C)C[C@]1(C)NC(=O)[C@H](Cc2ccc3ccccc3c2)NC(=O)[C@H](Cc2ccc(OCCN)cc2)NC(=O)[C@@H]2CCNC(=O)CC[C@H](NC(=O)[C@H](CO)NC(=O)Cc3ccc(cc3)CNC(=O)CC[C@@H](C(=O)N[C@@H](CCN)C(=O)N[C@H](Cc3c[nH]cn3)C(N)=O)NC1=O)C(=O)N[C@@H](Cc1c[nH]c3ccccc13)C(=O)N[C@@H](CCC(N)=O)C(=O)N2" ?
A: 8.17

Q: Which measured pIC50 value corresponds to "CC(C)C[C@]1(C)NC(=O)[C@H](Cc2ccc3ccccc3c2)NC(=O)[C@H](Cc2ccc(OCCN)cc2)NC(=O)[C@@H]2CCNC(=O)CC[C@H](NC(=O)[C@H](CO)NC(=O)Cc3ccc(cc3)CNC(=O)CC[C@@H](C(=O)N[C@@H](CCN)C(=O)NCCc3cccnc3)NC1=O)C(=O)N[C@@H](Cc1c[nH]c3ccccc13)C(=O)N[C@@H](CCC(N)=O)C(=O)N2" ?
A: 9.89

Q: Which measured pIC50 value corresponds to CC(C)C[C@]1(C)NC(=O)[C@H](Cc2ccc3ccccc3c2)NC(=O)[C@H](Cc2ccc(OCCN)cc2)NC(=O)[C@@H]2CCNC(=O)CC[C@H](NC(=O)[C@H](CO)NC(=O)Cc3ccc(cc3)CNC(=O)CC[C@@H](C(=O)N[C@@H](CCN)C(=O)N[C@@H](Cc3cccnc3)C(=O)N(C)CC(N)=O)NC1=O)C(=O)N[C@@H](Cc1c[nH]c3ccccc13)C(=O)N[C@@H](CCC(N)=O)C(=O)N2 [Compound 9] ([X1]SEWQ[Dab][AEF][2Nal][αMeL]E[Dab][3Pal][Sar]-NH2; lactam 3-6, N-10) ?
A: 10.60

Q: Which measured pIC50 value corresponds to "CC(C)C[C@]1(C)NC(=O)[C@H](Cc2ccc3ccccc3c2)NC(=O)[C@H](Cc2ccc(OCCN)cc2)NC(=O)[C@@H]2CCNC(=O)CC[C@H](NC(=O)[C@H](CO)NC(=O)Cc3ccc(cc3)CNC(=O)CC[C@@H](C(=O)N[C@@H](CCN)C(=O)NCCCCc3cccnc3)NC1=O)C(=O)N[C@@H](Cc1c[nH]c3ccccc13)C(=O)N[C@@H](CCC(N)=O)C(=O)N2" ?
A: 8.49

Q: Which measured pIC50 value corresponds to "CNC(=O)[C@H](Cc1cccnc1)NC(=O)[C@H](CCN)NC(=O)[C@@H]1CCC(=O)NCc2ccc(cc2)CC(=O)N[C@@H](CO)C(=O)N[C@H]2CCC(=O)NCC[C@H](NC(=O)[C@H](CCC(N)=O)NC(=O)[C@H](Cc3c[nH]c4ccccc34)NC2=O)C(=O)N[C@@H](Cc2ccc(OCCN)cc2)C(=O)N[C@@H](Cc2ccc3ccccc3c2)C(=O)N[C@@](C)(CC(C)C)C(=O)N1" ?
A: 10.28

Q: Which measured pIC50 value corresponds to CC(C)C[C@]1(C)NC(=O)[C@H](Cc2ccc3ccccc3c2)NC(=O)[C@H](Cc2ccc(OCCN)cc2)NC(=O)[C@@H]2CCNC(=O)CC[C@H](NC(=O)[C@H](CO)NC(=O)Cc3ccc(cc3)CNC(=O)CC[C@@H](C(=O)N[C@@H](CCN)C(=O)N[C@@H](Cc3cccnc3)C(=O)N[C@H](Cc3c[nH]cn3)C(N)=O)NC1=O)C(=O)N[C@@H](Cc1c[nH]c3ccccc13)C(=O)N[C@@H](CCC(N)=O)C(=O)N2 [Compound 10] ([X1]SEWQ[Dab][AEF][2Nal][αMeL]E[Dab][3Pal][dH]-NH2; lactam 3-6, N-10) ?
A: 10.42

Q: Which measured pIC50 value corresponds to "CC(C)C[C@]1(C)NC(=O)[C@H](Cc2ccc3ccccc3c2)NC(=O)[C@H](Cc2ccc(OCCN)cc2)NC(=O)[C@@H]2CCNC(=O)CC[C@H](NC(=O)[C@H](CO)NC(=O)Cc3ccc(cc3)CNC(=O)CC[C@@H](C(=O)N[C@@H](CCN)C(=O)N(C)[C@@H](Cc3cccnc3)C(N)=O)NC1=O)C(=O)N[C@@H](Cc1c[nH]c3ccccc13)C(=O)N[C@@H](CCC(N)=O)C(=O)N2" ?
A: 8.19

Q: Which measured pIC50 value corresponds to "CC(C)C[C@]1(C)NC(=O)[C@H](Cc2ccc3ccccc3c2)NC(=O)[C@H](Cc2ccc(OCCN)cc2)NC(=O)[C@@H]2CCNC(=O)CC[C@H](NC(=O)[C@H](CO)NC(=O)Cc3ccc(cc3)CNC(=O)CC[C@@H](C(=O)N[C@@H](CCN)C(=O)N[C@H](Cc3cccnc3)C(N)=O)NC1=O)C(=O)N[C@@H](Cc1c[nH]c3ccccc13)C(=O)N[C@@H](CCC(N)=O)C(=O)N2" ?
A: 8.68

Q: Which measured pIC50 value corresponds to CC(C)C[C@@H](CC(N)=O)NC(=O)[C@H](Cc1cccnc1)NC(=O)[C@H](CCN)NC(=O)[C@@H]1CCC(=O)NCc2ccc(cc2)CC(=O)N[C@@H](CO)C(=O)N[C@H]2CCC(=O)NCC[C@H](NC(=O)[C@H](CCC(N)=O)NC(=O)[C@H](Cc3c[nH]c4ccccc34)NC2=O)C(=O)N[C@@H](Cc2ccc(OCCN)cc2)C(=O)N[C@@H](Cc2ccc3ccccc3c2)C(=O)N[C@@](C)(CC(C)C)C(=O)N1 [Compound 11] ([X1]SEWQ[Dab][AEF][2Nal][αMeL]E[Dab][3Pal][β3hL]-NH2; lactam 3-6, N-10) ?
A: 9.17

Q: Which measured pIC50 value corresponds to "CC(C)C[C@]1(C)NC(=O)[C@H](Cc2ccc3ccccc3c2)NC(=O)[C@H](Cc2ccc(OCCN)cc2)NC(=O)[C@@H]2CCNC(=O)CC[C@H](NC(=O)[C@H](CO)NC(=O)Cc3ccc(cc3)CNC(=O)CC[C@@H](C(=O)N[C@@H](CCN)C(=O)N[C@@](C)(Cc3cccnc3)C(N)=O)NC1=O)C(=O)N[C@@H](Cc1c[nH]c3ccccc13)C(=O)N[C@@H](CCC(N)=O)C(=O)N2" ?
A: 8.77
